Measured MIC, listed per entry for reference.
system: STAPHYLOCOCCUS AUREUS CMX 553; assay: In vitro antibacterial activity, MIC, BHI agar dilution; format: cell-based; details: S. aureus CMX 553, unit assumed
The reply should contain only the number, in µg/mL.

Data request: Read off the recorded MIC for CC[C@H]1OC(=O)[C@H](C)C(=O)[C@H](C)[C@@H](O[C@@H]2O[C@H](C)C[C@H](N(C)C)[C@H]2O)[C@](C)(OC)C[C@@H](C)C2=NC[C@@H](C)N3C(=O)O[C@@]1(C)[C@H]3[C@H]2C
Data returned: 0.39

Data request: Tell me MIC reported for CC[C@H]1OC(=O)[C@H](C)C(=O)[C@H](C)[C@@H](O[C@@H]2O[C@H](C)C[C@H](N(C)C)[C@H]2O)[C@](C)(OC)C[C@@H](C)C2=NC[C@@H](Cc3ccccc3)N3C(=O)O[C@@]1(C)[C@H]3[C@H]2C
Data returned: 0.2

Data request: Give a short answer stating reported MIC for CC[C@H]1OC(=O)[C@H](C)C(=O)[C@H](C)[C@@H](O[C@@H]2O[C@H](C)C[C@H](N(C)C)[C@H]2O)[C@](C)(OC)C[C@@H](C)C2=N[C@H](COCc3ccccc3Br)CN3C(=O)O[C@@]1(C)[C@H]3[C@H]2C .
Data returned: 0.05

Data request: Recall and state the measured MIC for CC[C@H]1OC(=O)[C@H](C)C(=O)[C@H](C)[C@@H](O[C@@H]2O[C@H](C)C[C@H](N(C)C)[C@H]2O)[C@](C)(OC)C[C@@H](C)C2=NC[C@H](Cc3ccc(O)cc3)N3C(=O)O[C@@]1(C)[C@H]3[C@H]2C .
Data returned: 0.39

Data request: Annotate the compound CC[C@H]1OC(=O)[C@H](C)C(=O)[C@H](C)[C@@H](O[C@@H]2O[C@H](C)C[C@H](N(C)C)[C@H]2O)[C@](C)(OC)C[C@@H](C)C2=N[C@@H]3CCCC[C@@H]3N3C(=O)O[C@@]1(C)[C@H]3[C@H]2C with its measured MIC.
Data returned: 0.78

Data request: Provide one value: measured MIC of CC[C@H]1OC(=O)[C@H](C)C(=O)[C@H](C)[C@@H](O[C@@H]2O[C@H](C)C[C@H](N(C)C)[C@H]2O)[C@](C)(OC)C[C@@H](C)C2=NC[C@H](Cc3cscn3)N3C(=O)O[C@@]1(C)[C@H]3[C@H]2C
Data returned: 0.2

Data request: Fill in reported MIC for this entry: CC[C@H]1OC(=O)[C@H](C)C(=O)[C@H](C)[C@@H](O[C@@H]2O[C@H](C)C[C@H](N(C)C)[C@H]2O)[C@](C)(OC)C[C@@H](C)C2=N[C@H](COCc3ccc(F)cc3)CN3C(=O)O[C@@]1(C)[C@H]3[C@H]2C
Data returned: 0.05

Data request: Retrieve MIC measured for CC[C@H]1OC(=O)[C@H](C)C(=O)[C@H](C)[C@@H](O[C@@H]2O[C@H](C)C[C@H](N(C)C)[C@H]2O)[C@](C)(OC)C[C@@H](C)C2=N[C@H](CO)CN3C(=O)O[C@@]1(C)[C@H]3[C@H]2C and print it.
Data returned: 0.78
